# ASSAY_TARGET: CDK4/Cyclin-D1 kinase complex (Homo sapiens, UniProt P11802)
# Sequence (P11802 whole entry): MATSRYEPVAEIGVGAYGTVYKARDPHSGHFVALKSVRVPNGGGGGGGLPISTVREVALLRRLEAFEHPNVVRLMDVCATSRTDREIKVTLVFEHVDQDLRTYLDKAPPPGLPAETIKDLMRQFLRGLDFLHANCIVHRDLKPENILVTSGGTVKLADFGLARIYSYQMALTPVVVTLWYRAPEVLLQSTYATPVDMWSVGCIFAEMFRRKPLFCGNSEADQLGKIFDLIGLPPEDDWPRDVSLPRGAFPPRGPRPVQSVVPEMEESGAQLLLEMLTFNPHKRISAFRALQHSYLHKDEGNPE
# Sequence (P24385 whole entry partner): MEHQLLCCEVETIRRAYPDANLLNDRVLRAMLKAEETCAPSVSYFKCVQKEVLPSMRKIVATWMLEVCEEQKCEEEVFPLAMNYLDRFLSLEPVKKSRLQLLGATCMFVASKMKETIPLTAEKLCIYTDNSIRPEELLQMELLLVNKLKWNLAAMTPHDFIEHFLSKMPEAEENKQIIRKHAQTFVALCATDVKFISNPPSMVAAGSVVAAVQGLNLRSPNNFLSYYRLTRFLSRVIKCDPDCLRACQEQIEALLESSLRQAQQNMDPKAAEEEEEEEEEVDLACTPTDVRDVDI
# ASSAY_REMARKS: CDK4 ELISA based assay, Rb Ser780 phosphorylation
# Type: biochemical
# STUDY_CONDITIONS: Table C; read-out: CDK4 IC50
pIC50: −log10 of the molar value.
Readings of pIC50 for the listed compounds

Take a look at these entries with their results.
COMPOUND: CCC(CC)N1C(=O)C(C)(C)c2cnc(Nc3ccc(N4CCNCC4)cc3)nc21 [drawing 162]
PROPERTY_MEASURED: pIC50
ENDPOINT_RESULT: > 5.00

COMPOUND: CCC(CC)N1C(=O)C(C)(C)c2cnc(Nc3ccc(N4CCN(C(C)=O)CC4)cn3)nc21
PROPERTY_MEASURED: pIC50
ENDPOINT_RESULT: < 5.00

COMPOUND: CCC(CC)N1C(=O)Cc2cnc(Nc3ccc(N4CCNCC4)cc3)nc21
PROPERTY_MEASURED: pIC50
ENDPOINT_RESULT: > 5.00

COMPOUND: CCC(CC)N1C(=O)Cc2cnc(Nc3ccc(N4CCNCC4)cn3)nc21
PROPERTY_MEASURED: pIC50
ENDPOINT_RESULT: < 5.00

COMPOUND: CCC(CC)N1C(=O)C(C)(C)c2cnc(Nc3ccc(N4CCN(C)CC4)cc3)nc21 [drawing 155]
PROPERTY_MEASURED: pIC50
ENDPOINT_RESULT: > 5.00

COMPOUND: CC1(C)C(=O)N(C2CCCC2)c2nc(Nc3ccc(N4CCNCC4)cn3)ncc21
PROPERTY_MEASURED: pIC50
ENDPOINT_RESULT: > 5.00

May I ask what pIC50 has been recorded for Cc1cn(C2CCCC2)c2nc(Nc3ccc(N4CCNCC4)cc3)ncc12 [drawing 150] ?
> 5.00

Report pIC50 for "CCC(CC)N1C(=O)C(C)(C)c2cnc(Nc3ccc(N4CCN(C(=O)OC(C)(C)C)CC4)cc3)nc21" please.
< 5.00

Any idea what its pIC50 is? The compound is "CCC(CC)N1C(=O)C(C)(C)c2cnc(Nc3ccc(N4CCNCC4)cn3)nc21"
> 5.00
